Cannabinoid receptor 1 (Rattus norvegicus) IC50, compiled from various sources.
Sequence (P20272 whole entry): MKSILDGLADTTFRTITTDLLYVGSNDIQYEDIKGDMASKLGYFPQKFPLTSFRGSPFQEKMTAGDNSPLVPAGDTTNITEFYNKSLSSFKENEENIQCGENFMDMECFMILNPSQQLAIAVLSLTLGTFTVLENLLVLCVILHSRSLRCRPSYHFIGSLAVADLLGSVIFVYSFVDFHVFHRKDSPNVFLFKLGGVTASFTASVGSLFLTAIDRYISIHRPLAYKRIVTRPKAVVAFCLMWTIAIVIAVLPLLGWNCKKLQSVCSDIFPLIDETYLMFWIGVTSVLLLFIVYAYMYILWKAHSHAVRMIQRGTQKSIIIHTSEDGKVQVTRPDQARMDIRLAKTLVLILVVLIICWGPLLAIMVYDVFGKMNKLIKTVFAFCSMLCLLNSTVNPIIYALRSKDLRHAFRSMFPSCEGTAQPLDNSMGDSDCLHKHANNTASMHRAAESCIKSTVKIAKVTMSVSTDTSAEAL
Reply numerically in nM, unit not repeated.

Exercise: Missing value: IC50, Cannabinoid receptor 1 (Rattus norvegicus), entry CC(C)(C)NC(=O)N1CCN(C(c2ccc(Cl)cc2)c2ccccc2C(F)(F)F)CC1 (centres undefined) . Fill in?
Key: 2050

Exercise: Missing value: IC50, Cannabinoid receptor 1 (Rattus norvegicus), entry CC(C)(C)c1nnc(-c2nn(-c3ccc(Cl)cc3Cl)c(-c3ccc(Br)cc3)c2C(=O)Nc2ccccn2)o1 . Fill in?
Key: 1.46

Exercise: Missing value: IC50, Cannabinoid receptor 1 (Rattus norvegicus), entry Cc1c(-c2nnc(C3CCC3)o2)nn(-c2ccc(Cl)cc2Cl)c1-c1ccc(Cl)cc1 . Fill in?
Key: 13.1

Exercise: Missing value: IC50, Cannabinoid receptor 1 (Rattus norvegicus), entry CC1(c2nnc(-c3nn(-c4ccc(Cl)cc4Cl)c(-c4ccc(Br)cc4)c3Cn3cncn3)o2)CC1 . Fill in?
Key: 2.81

Exercise: Missing value: IC50, Cannabinoid receptor 1 (Rattus norvegicus), entry C[C@H](Nc1cc(NC2CCCC2)ncn1)[C@@H](Cc1ccc(Cl)cc1)c1cccc(Br)c1 . Fill in?
Key: 24.7

Exercise: Missing value: IC50, Cannabinoid receptor 1 (Rattus norvegicus), entry O=C(NC1CCCCC1)N1CCN(C(c2ccc(Cl)cc2)c2ccccc2C(F)(F)F)CC1 (centres undefined) . Fill in?
Key: 163

Exercise: Missing value: IC50, Cannabinoid receptor 1 (Rattus norvegicus), entry Cc1nc(NC2CCCCC2)cc(N[C@@H](C)[C@@H](Cc2ccc(Cl)cc2)c2cccc(Br)c2)n1 . Fill in?
Key: 22.1
